Test: chemical genetic growth profiling, strain panel (AID 1159580);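 further: tested at 20 µM; growth read once vehicle control cultures reached saturation at 30 °C; 1 = growth at the plate median or of vehicle wells; lower values mean less growth of the strain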
Conditions: S. cerevisiae deletion strains, growth OD, locus YER111C, strain swi4, hits give low values
Hit rate of the full screen: of about 5,500 compounds, about 2,000 (36%) were called active. Roughly 18% stayed inconclusive and do not appear here. This is one part of the list.
assayMetric: normalized growth

[[record]]
compound = "CCOC(=O)C1=C(C)NC(C)=C(C(=O)OC)C1c1cccc([N+](=O)[O-])c1 (stereo unspecified)"
numericvalue = 1.02

[[record]]
compound = "CC(C)=CCOc1c2occc2cc2ccc(=O)oc12"
numericvalue = 0.929

[[record]]
compound = "CCS(=O)(=O)CCn1c([N+](=O)[O-])cnc1C"
numericvalue = 1.02

[[record]]
compound = "CC(=O)OCC(=O)[C@@]1(O)CCC2C3CCC4=CC(=O)CC[C@]4(C)[C@@]3(F)[C@@H](O)C[C@@]21C (stereo partly specified)"
numericvalue = 1.02

[[record]]
compound = "Cn1c(=O)[nH]c(=O)c2[nH]cnc21"
numericvalue = 1

[[record]]
compound = "COc1ccc2c(=O)c(CC(=O)O)coc2c1"
numericvalue = 0.981


----------
Some compounds, each annotated with its measured normalized growth.
Assay: chemical genetic growth profiling, strain panel (AID 1159580);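 further: tested at 20 µM; growth read once vehicle control cultures reached saturation at 30 °C; 1 = growth at the plate median or of vehicle wells; lower values mean less growth of the strain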
Details: S. cerevisiae deletion strains, growth OD, locus YNL071W, strain lat1, hits give low values
Screen size: about 5,500 compounds; about 2,000 (36%) were called active. About 18% were inconclusive and are not listed. The list shows a part of the results.
assayMetric: normalized growth

[[record]]
compound = "Cn1nnnc1SCC1=C(C(=O)O)N2C(=O)C(NC(=O)C(OC=O)c3ccccc3)C2SC1 (stereo not drawn)"
numericvalue = 1

[[record]]
compound = "C=C1CC2C(CCC3(C)C(=O)CCC23)C2(C)C=CC(=O)C=C12 (stereo not drawn)"
numericvalue = 0.883

[[record]]
compound = "NCCS"
numericvalue = 0.956

[[record]]
compound = "CN1Cc2c(N)cccc2C(c2ccccc2)C1 (stereo not drawn)"
numericvalue = 1.01

[[record]]
compound = "C[C@]12C=CC(=O)C=C1CCC1C2C(=O)C[C@@]2(C)C1CC[C@]2(O)C(=O)CO (stereo partly drawn)"
numericvalue = 1.01

[[record]]
compound = "O=c1[nH]cnc2nc[nH]c12"
numericvalue = 1.01

[[record]]
compound = "CC(C)=CCc1c(O)cc2occ(-c3ccc4c(c3)OCO4)c(=O)c2c1O"
numericvalue = 0.949

[[record]]
compound = "C[C@]12C=CC(=O)C=C1CCC1C2CC[C@]2(C)C(=O)CCC12 (stereo partly drawn)"
numericvalue = 0.977

[[record]]
compound = "CC(C)CCCC(C)[C@H]1CCC2C3CC[C@H]4CC(=O)CC[C@]4(C)C3CC[C@@]21C (stereo partly drawn)"
numericvalue = 0.989

[[record]]
compound = "c1coc(CNc2ncnc3nc[nH]c23)c1"
numericvalue = 0.999

[[record]]
compound = "COc1ccc2c(=O)c(-c3cc4c(cc3OC)OCO4)coc2c1"
numericvalue = 1

[[record]]
compound = "CC(=O)c1ccc2c(c1)N(CCCN(C)C)c1ccccc1S2"
numericvalue = 0.995

[[record]]
compound = "CCOC(=O)C1=C(C)NC(C)=C(C(=O)OC)C1c1cccc([N+](=O)[O-])c1 (stereo not drawn)"
numericvalue = 1.01

[[record]]
compound = "C[C@]12CCC3C(CC[C@H]4CC(=O)CC[C@]34C)C1CCC2=O (stereo partly drawn)"
numericvalue = 0.563

[[record]]
compound = "OCCN1CCN(CCCN2c3ccccc3Sc3ccc(Cl)cc32)CC1"
numericvalue = 1.01

[[record]]
compound = "COc1cc2c(cc1-c1coc3c4c(c(OC)cc3c1=O)OC(C)(C)C=C4)OCO2"
numericvalue = 0.799

[[record]]
compound = "Nc1ncnc2c1ncn2[C@@H]1O[C@H](CO)[C@@H](O)[C@@H]1O"
numericvalue = 1.02

[[record]]
compound = "CC1(C)C=Cc2c(cc3occ(-c4ccc5c(c4)OCO5)c(=O)c3c2O)O1"
numericvalue = 0.986

[[record]]
compound = "COc1cc(OC)c2c(=O)c(-c3ccc4c(c3)OCO4)coc2c1"
numericvalue = 0.954

[[record]]
compound = "OC[C@@H](O)C(O[C@@H]1O[C@H](CO)[C@H](O)[C@H](O)[C@H]1O)[C@H](O)[C@@H](O)CO (stereo partly drawn)"
numericvalue = 0.985

[[record]]
compound = "COc1c2occc2cc2ccc(=O)oc12"
numericvalue = 0.947

[[record]]
compound = "COc1cc2ccc(=O)oc2c2ccoc12"
numericvalue = 0.913

[[record]]
compound = "O=c1c(-c2ccc3c(c2)OCO3)coc2cc(O)ccc12"
numericvalue = 0.996


----------
Test: chemical genetic growth profiling, strain panel (AID 1159580);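 further: tested at 20 µM; growth read once vehicle control cultures reached saturation at 30 °C; 1 = growth at the plate median or of vehicle wells; lower values mean less growth of the strain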
Conditions: S. cerevisiae deletion strains, growth OD, locus YLL001W, strain dnm1
About 2,000 (36%) of roughly 5,500 compounds were called active. Roughly 18% stayed inconclusive and do not appear here. Cut-off read from the data, not from the text of the source: active = normalized growth mostly below about 0.91 (no sharp cut-off); inconclusive = no clear call, values can overlap the other calls; inactive = mostly above about 0.92. Some of the results follow.
Labels: yes for active, no for inactive

[[record]]
molecule = "CNC(=O)CSP(=S)(OC)OC"
categorylabel = "no"

[[record]]
molecule = "C[C@]12C=CC(=O)C=C1CCC1C2CC[C@]2(C)C(=O)CCC12 (stereo not given in full)"
categorylabel = "no"

[[record]]
molecule = "CCOc1nc2cccc(C(=O)OC(C)OC(=O)OC3CCCCC3)c2n1Cc1ccc(-c2ccccc2-c2nn[nH]n2)cc1 (stereo not given)"
categorylabel = "no"

[[record]]
molecule = "CC1(C)S[C@@H]2[C@H](NC(=O)COc3ccccc3)C(=O)N2[C@H]1C(=O)O"
categorylabel = "no"

[[record]]
molecule = "CC(C)(O)CC[C@@H](O)[C@](C)(O)C1CC[C@@]2(O)C3=CC(=O)C4C[C@@H](O)[C@@H](O)C[C@]4(C)C3CC[C@]12C (stereo not given in full)"
categorylabel = "no"

[[record]]
molecule = "CC(C)=CCc1c(O)cc2occ(-c3ccc4c(c3)OCO4)c(=O)c2c1O"
categorylabel = "yes"

[[record]]
molecule = "CC(=O)O[C@@H]1CC2C(C)(C)[C@H](O)C[C@H](O)[C@]2(C)C2CC[C@@]3(C)C(=CC(=O)O[C@H]3c3ccoc3)[C@@]21C (stereo not given in full)"
categorylabel = "no"

[[record]]
molecule = "O=C(CCCN1CC=C(n2c(=O)[nH]c3ccccc32)CC1)c1ccc(F)cc1"
categorylabel = "no"

[[record]]
molecule = "CC1(C)C=Cc2c(cc3occ(-c4ccc5c(c4)OCO5)c(=O)c3c2O)O1"
categorylabel = "no"

[[record]]
molecule = "O=c1[nH]c2ccccc2n1CCCN1CCC(n2c(=O)[nH]c3cc(Cl)ccc32)CC1"
categorylabel = "no"

[[record]]
molecule = "C=C1CC2C(CCC3(C)C(=O)CCC23)C2(C)C=CC(=O)C=C12 (stereo not given)"
categorylabel = "no"

[[record]]
molecule = "CCC(=O)O[C@H]1CCC2C3CCc4cc(O)ccc4C3CC[C@@]21C (stereo not given in full)"
categorylabel = "no"

[[record]]
molecule = "COc1ccc2c(=O)c(-c3cc4c(cc3OC)OCO4)coc2c1"
categorylabel = "no"

[[record]]
molecule = "COc1c2c(cc3occ(-c4ccc5c(c4)OCO5)c(=O)c13)OC(C)(C)C=C2"
categorylabel = "no"

[[record]]
molecule = "O=C(O)c1cccc(O)c1O"
categorylabel = "no"

[[record]]
molecule = "CC(=O)Oc1ccc2c(c1)CCC1C2CCC2(C)C1CC(OC(C)=O)C2OC(C)=O (stereo not given)"
categorylabel = "no"

[[record]]
molecule = "COc1cc2c(cc1-c1coc3c4c(c(OC)cc3c1=O)OC(C)(C)C=C4)OCO2"
categorylabel = "no"

[[record]]
molecule = "OC[C@@H](O)C(O[C@@H]1O[C@H](CO)[C@H](O)[C@H](O)[C@H]1O)[C@H](O)[C@@H](O)CO (stereo not given in full)"
categorylabel = "no"

[[record]]
molecule = "Cn1nnnc1SCC1=C(C(=O)O)N2C(=O)C(NC(=O)C(OC=O)c3ccccc3)C2SC1 (stereo not given)"
categorylabel = "no"

[[record]]
molecule = "O=c1c(-c2ccc3c(c2)OCO3)coc2cc(O)ccc12"
categorylabel = "no"


----------
Assay: chemical genetic growth profiling, strain panel (AID 1159580);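 further: tested at 20 µM; growth read once vehicle control cultures reached saturation at 30 °C; 1 = growth at the plate median or of vehicle wells; lower values mean less growth of the strain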
Conditions: S. cerevisiae deletion strains, growth OD, locus YPL256C, strain CLN2
About 2,000 (36%) of roughly 5,500 compounds were called active. Another 18% or so got no clear call; they are omitted. Rule as the data show it: active = normalized growth mostly below about 0.91 (no sharp cut-off); inconclusive = no clear call, values can overlap the other calls; inactive = mostly above about 0.92. Some of the results follow.
Outcome codes: active, inactive

[[record]]
compound = "CNC(=O)CSP(=S)(OC)OC"
categorylabel = "inactive"

[[record]]
compound = "Cc1cc(C)nc(NS(=O)(=O)c2ccc(N)cc2)n1"
categorylabel = "inactive"

[[record]]
compound = "Cn1nnnc1SCC1=C(C(=O)O)N2C(=O)C(NC(=O)C(OC=O)c3ccccc3)C2SC1 (stereo unspecified)"
categorylabel = "inactive"

[[record]]
compound = "CC(/C=C/c1ccccc1)=N/OC(=O)c1ccccc1Cl"
categorylabel = "active"

[[record]]
compound = "CC(C)=CCc1c(O)cc2occ(-c3ccc4c(c3)OCO4)c(=O)c2c1O"
categorylabel = "active"

[[record]]
compound = "COc1c2c(cc3occ(-c4ccc5c(c4)OCO5)c(=O)c13)OC(C)(C)C=C2"
categorylabel = "inactive"

